Source: the METLIN SMRT retention time set (Domingo-Almenara et al. 2019)

experiment: gradient 5% acetonitrile 3 min, to 50% in 2 min, to 85% in 15 min, held 3 min, 100 µL/min; conditions: column: Zorbax Extend-C18 2.1 x 50 mm; eluents: water / acetonitrile, 0.1% formic acid
Would you mind labelling by RP-LC retention time? At or over 900 s is TRUE, under is FALSE.

Here are 3 compounds together with their reported answers.
Compound | Class label
CCN1c2cc(F)ccc2C(=O)NC12CCN(C(=O)c1ccc(F)cc1)CC2 | FALSE
COCCNC(=O)c1nnc(-c2ccc(S(=O)(=O)N(C)C)cc2)o1 | FALSE
O=C(c1cc(Cl)ccc1F)N1CCc2nc(-c3ccc(Cl)cc3)ncc2C1 | TRUE

Exam item: Can COc1ccc(C(=O)NCc2c(C)noc2C)cn1 be said to have RP-LC retention time at or above 900 s?
Marked response: FALSE

Exam item: Can Cc1ccc(NC(=O)N2CCCC2c2nc(-c3ccccc3C)no2)cc1C (stereo not given) be said to have RP-LC retention time at or above 900 s?
Marked response: FALSE

Exam item: Can O=C(Nc1ccc(CC(=O)N2CCC(O)CC2)cc1)C1CCC1 be said to have RP-LC retention time at or above 900 s?
Marked response: FALSE

Exam item: Can CCOC(=O)c1[nH]c(C)c(CCC(=O)N2CCC(C(=O)NCc3ccc4c(c3)OCO4)CC2)c1C be said to have RP-LC retention time at or above 900 s?
Marked response: FALSE

Exam item: Can COc1ccc(CCC(=O)N2CCC3(CC2)C(=O)N(C)c2ccccc23)cc1 be said to have RP-LC retention time at or above 900 s?
Marked response: FALSE

Exam item: Can CCc1ccc(NC(=O)C2CCN(S(C)(=O)=O)c3cc(C)ccc3O2)cc1 (stereo not given) be said to have RP-LC retention time at or above 900 s?
Marked response: TRUE

Exam item: Can COCCCNC(=O)C1c2ccccc2C(=O)N(Cc2ccccc2)C12CCCC2 (stereo not given) be said to have RP-LC retention time at or above 900 s?
Marked response: FALSE

Exam item: Can Cc1ccccc1S(=O)(=O)N1CC[C@@H]2CN(c3cnccn3)[C@@H]2C1 be said to have RP-LC retention time at or above 900 s?
Marked response: FALSE

Exam item: Can Cc1ccc(Nc2nc(-c3ccccc3)cs2)cc1 be said to have RP-LC retention time at or above 900 s?
Marked response: TRUE

Exam item: Can O=C(NCc1ccccc1Br)C1CCCN(c2cnc3nccnc3c2)C1 (stereo not given) be said to have RP-LC retention time at or above 900 s?
Marked response: FALSE

Exam item: Can CCCN1CCN(C(=O)c2sc(-c3cn(C(C)C)c4ncccc34)nc2C)CC1 be said to have RP-LC retention time at or above 900 s?
Marked response: FALSE

Exam item: Can O=S(=O)(c1cc(-c2noc(C3CCCC3)n2)cs1)N1CCOCC1 be said to have RP-LC retention time at or above 900 s?
Marked response: TRUE

Exam item: Can Cc1ccc(-n2c(=O)c3c(cc(C)n3C)n(CC(=O)Nc3ccc(C)c(F)c3)c2=O)cc1 be said to have RP-LC retention time at or above 900 s?
Marked response: TRUE

Exam item: Can CCOc1ccccc1NS(=O)(=O)c1ccc2c(c1)CCCC(=O)N2 be said to have RP-LC retention time at or above 900 s?
Marked response: FALSE

Exam item: Can O=C(c1ccsc1)N1CCCN(c2cc(-c3ccc4c(c3)OCO4)[nH]n2)CC1 be said to have RP-LC retention time at or above 900 s?
Marked response: FALSE

Exam item: Can Cc1ccc2c(c1)N(S(C)(=O)=O)CCC(C(=O)NC1CCCCCC1)O2 (stereo not given) be said to have RP-LC retention time at or above 900 s?
Marked response: TRUE

Exam item: Can O=C(C1CCCN(c2cnc3nccnc3c2)C1)N1CCN(c2ccccc2)CC1 (stereo not given) be said to have RP-LC retention time at or above 900 s?
Marked response: FALSE
